target: Large T antigen (Simian virus 40, UniProt P03070); format: functional, Betapolyomavirus macacae;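 also: Confirmatory-stage PubChem screen for compounds that inhibit SV40 T antigen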
Sequence (P03070 whole entry): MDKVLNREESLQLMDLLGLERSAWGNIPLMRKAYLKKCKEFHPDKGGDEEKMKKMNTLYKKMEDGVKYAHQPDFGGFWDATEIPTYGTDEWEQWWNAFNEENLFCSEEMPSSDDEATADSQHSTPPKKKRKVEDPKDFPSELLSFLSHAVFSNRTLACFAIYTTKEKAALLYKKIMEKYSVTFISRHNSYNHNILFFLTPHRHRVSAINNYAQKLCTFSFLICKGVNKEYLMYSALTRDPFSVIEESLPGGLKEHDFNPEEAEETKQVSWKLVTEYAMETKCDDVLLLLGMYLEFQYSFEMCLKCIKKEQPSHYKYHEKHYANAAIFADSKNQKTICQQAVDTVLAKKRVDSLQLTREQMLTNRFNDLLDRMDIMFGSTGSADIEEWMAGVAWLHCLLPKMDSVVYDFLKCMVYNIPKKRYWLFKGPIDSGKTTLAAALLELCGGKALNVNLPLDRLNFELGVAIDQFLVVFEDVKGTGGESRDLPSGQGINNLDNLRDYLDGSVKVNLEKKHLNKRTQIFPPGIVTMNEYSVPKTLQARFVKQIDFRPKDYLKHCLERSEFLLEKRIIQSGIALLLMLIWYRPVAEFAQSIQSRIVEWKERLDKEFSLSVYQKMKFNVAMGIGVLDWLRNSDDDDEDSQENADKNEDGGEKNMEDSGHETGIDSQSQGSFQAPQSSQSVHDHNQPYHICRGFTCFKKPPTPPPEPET
Activity calls are given as the source filed them.
Quantity name: IC50

Known IC50 results, listed for orientation:
**Q:** // IC50 lookup, key: NNC(=O)C(=O)Nc1ccc(O)cc1
**A:** 9.75 µM (active)

**Q:** Repeat with O=[N+]([O-])c1c(O)nc(/C=C\c2ccc(O)c(O)c2)nc1O
**A:** 4.72 µM (active)

**Q:** Repeat with Oc1ccc2ccccc2c1/C=N/c1ccc(N2CCOCC2)cc1
**A:** 36 µM (active)

**Q:** Repeat with COC1=C(Nc2ccc(O)cc2)C(=O)c2ccccc2C1=O
**A:** 9.88 µM (active)

**Q:** Repeat with O=C(CSC1=NS(=O)(=O)c2ccccc21)Nc1ccccc1
**A:** 12.2 µM (active)

I would be grateful if you could provide IC50 for each of the following entries.
1. O=C1NC(=O)N(c2ccc(Cl)cc2)C(=O)/C1=C/c1coc2ccc(O)cc2c1=O
2. CCCc1cc(-c2[nH]nc(C(=O)OCC)c2-c2cscn2)c(O)cc1O

**A:**
1: > 100 µM (active); 2: 23.4 µM (active)

I would be grateful if you could provide IC50 for each of the following entries.
1. Cc1ccc(CNc2ccc3c(c2)ncn3C(C)C)cc1
2. COc1cc2c(OC)c3ccoc3nc2cc1O
3. N=C1/C(=C\c2ccc(-c3cccc(C(=O)O)c3)o2)C(=O)N=C2SC=C(c3ccccc3)N12
4. O=C1NC(=O)C(=Cc2ccc(-c3cc(Cl)ccc3[N+](=O)[O-])o2)C(=O)N1

**A:**
1: 42.6 µM (active); 2: 20 µM (active); 3: 92.2 µM (active); 4: 48.3 µM (active)

----------
biological target: Nucleotide-binding oligomerization domain-containing protein 2 (Homo sapiens, UniProt Q9HC29); assay: inhibition of NOD2-driven NF-kB reporter – cell-based, luminescence, uHTS, HEK293 (AID 1566); type: functional
Sequence (Q9HC29 whole entry, the tested form may be a part): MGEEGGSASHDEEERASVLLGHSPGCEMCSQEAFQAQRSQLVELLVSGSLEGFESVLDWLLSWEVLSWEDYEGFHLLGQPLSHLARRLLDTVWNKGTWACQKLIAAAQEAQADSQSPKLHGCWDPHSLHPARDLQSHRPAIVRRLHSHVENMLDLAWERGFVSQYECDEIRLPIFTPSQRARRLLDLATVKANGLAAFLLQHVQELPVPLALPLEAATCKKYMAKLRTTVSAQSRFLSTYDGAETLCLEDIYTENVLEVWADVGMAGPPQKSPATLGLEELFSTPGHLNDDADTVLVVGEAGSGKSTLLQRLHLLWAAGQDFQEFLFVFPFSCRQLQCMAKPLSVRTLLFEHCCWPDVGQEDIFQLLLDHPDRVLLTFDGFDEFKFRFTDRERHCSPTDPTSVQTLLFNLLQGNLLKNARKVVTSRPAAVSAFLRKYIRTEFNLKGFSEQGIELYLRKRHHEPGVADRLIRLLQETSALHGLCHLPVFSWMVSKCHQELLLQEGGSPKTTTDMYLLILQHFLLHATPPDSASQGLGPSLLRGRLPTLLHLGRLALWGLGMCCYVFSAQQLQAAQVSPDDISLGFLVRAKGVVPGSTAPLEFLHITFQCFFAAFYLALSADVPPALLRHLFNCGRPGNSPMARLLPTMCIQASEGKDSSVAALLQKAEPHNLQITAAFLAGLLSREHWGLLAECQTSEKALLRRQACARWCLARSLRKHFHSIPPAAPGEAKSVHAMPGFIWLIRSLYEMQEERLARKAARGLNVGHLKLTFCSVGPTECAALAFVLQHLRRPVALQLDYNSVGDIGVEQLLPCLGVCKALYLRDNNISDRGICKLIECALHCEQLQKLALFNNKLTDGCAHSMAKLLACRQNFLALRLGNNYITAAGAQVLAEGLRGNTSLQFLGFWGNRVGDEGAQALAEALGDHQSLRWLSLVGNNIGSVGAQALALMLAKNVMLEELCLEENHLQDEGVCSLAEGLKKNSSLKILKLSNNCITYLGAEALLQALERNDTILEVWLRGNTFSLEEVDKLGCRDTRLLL
Calls of active or inactive are those of the source.
Allowed answers: 1.0 (active), 0.0 (inactive)

See these solved cases before continuing.
**Q:** Just curious, what result did N#CC(c1ccccc1)c1ccc2c(C(F)(F)F)cc(C(F)(F)F)nc2n1 (stereo unspecified) get here?
**A:** 1.0

**Q:** Repeat with Cc1cc(C(=O)COC(=O)c2ccccc2Br)c(C)n1CC1CCCO1 (stereo unspecified)
**A:** 1.0

**Q:** Repeat with Cc1ccccc1CS(=O)(=O)c1ncc(Cl)c(C(=O)Nc2ccc(F)cc2)n1
**A:** 0.0

**Q:** Repeat with O=C(CCl)Nc1cc(-c2ccccc2)nn1-c1ccccc1
**A:** 0.0

Further cases:
**Q:** Just curious, what result did COc1cc(C(=O)Nc2sc3c(c2C(=O)O)CCC(C)C3)cc(OC)c1OC (stereo unspecified) get here?
**A:** 1.0

**Q:** Repeat with CCOC(=O)c1sc2ccccc2c1OC(=O)c1ccc(C)cc1
**A:** 1.0

----------
tested on: H4; experiment: Luminescence Cell-Based Dose Response HTS to Identify Activators of 5'UTR Stem-Loop Driven Prion Protein mRNA Translation in H4 Neuroglioblastoma Cells. [Related pubchem assays: 1829 (Project Summary), 1814 (Primary HTS)]; type: functional; details: Homo sapiens
Active and inactive are the calls of the source.
Quantity name: EC50

**Q:** // EC50 lookup, key: CC(=O)N1c2ccc(S(=O)(=O)N3CCC(C(=O)NCc4ccccc4Cl)CC3)cc2CC1C (stereo not drawn)
**A:** > 120 µM (not active)

**Q:** Repeat with CCOc1ccc(NC(=O)C(S)=NC2CCCCC2)cc1
**A:** 11 µM (active)

**Q:** Repeat with CCOC(=O)c1c(C)n[nH]c1N/N=C/c1cccnc1
**A:** > 120 µM (not active)

**Q:** Repeat with Oc1nc(Nc2ccccn2)cc2ccccc12
**A:** 36.8 µM (active)

**Q:** Repeat with CC(NC(=O)Nc1ccc2c(c1)OCO2)C1CCCO1 (stereo not drawn)
**A:** 33 µM (active)

I would be grateful if you could provide EC50 for each of the following entries.
1. O=C(NN=C1C2CC3CC1CC(Cl)(C3)C2)c1ccccn1
2. COC(=O)C1=C(NC(=O)c2ccc(C)c(C)c2)CCS1
3. Clc1ccc2c(c1)[C@H]1OCC[C@H]1[C@@H](c1ccco1)N2

**A:**
> 120 µM (not active)
19 µM (active)
9.48 µM (active)

----------
target: Nuclear receptor subfamily 0 group B member 1 (Homo sapiens); format: functional, cell-based;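 also: HEK293T cells transfected with SF-1 and DAX-1 plus StAR promoter luciferase reporter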
Sequence (P51843 whole entry): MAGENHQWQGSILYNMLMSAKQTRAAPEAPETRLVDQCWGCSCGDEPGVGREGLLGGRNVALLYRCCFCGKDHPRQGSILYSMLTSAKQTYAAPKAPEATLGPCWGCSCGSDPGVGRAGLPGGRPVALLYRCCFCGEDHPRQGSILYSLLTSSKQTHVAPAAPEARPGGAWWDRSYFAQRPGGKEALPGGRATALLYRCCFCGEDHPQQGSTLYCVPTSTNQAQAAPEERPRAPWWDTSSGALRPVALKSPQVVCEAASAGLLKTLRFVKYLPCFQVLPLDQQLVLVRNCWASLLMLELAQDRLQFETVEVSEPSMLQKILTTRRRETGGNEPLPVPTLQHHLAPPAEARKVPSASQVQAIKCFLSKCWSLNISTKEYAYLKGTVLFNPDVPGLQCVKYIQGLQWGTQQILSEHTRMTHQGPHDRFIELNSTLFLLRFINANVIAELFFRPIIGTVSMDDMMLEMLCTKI
Activity calls are given as the source filed them.
Would you kindly list IC50 for each of these compounds?

Known IC50 results, listed for orientation:
**Q:** // IC50 lookup, key: Cc1ccc(C(=O)NNC(=O)c2ccc3c(c2)OCCO3)cc1
**A:** > 67.5 µM (inactive)

**Q:** Repeat with Cc1ccc(NC(S)=NNC(=O)Nc2ccccc2)cc1
**A:** > 67.6 µM (inactive)

**Q:** Repeat with Cc1ccc(-c2nc3ccc(Br)cn3c2Cc2ccccc2)cc1
**A:** > 67.6 µM (inactive)

Below: the item to evaluate.
**Q:** // IC50 lookup, key: CCCN1CCN(CCCNC(=O)c2ccc3c(c2)NC(=O)c2ccccc2S3)CC1
**A:** > 67.5 µM (inactive)

----------
biological target: G-protein coupled receptor 55 (Homo sapiens); experiment: inhibition of LPI-stimulated GPR55 beta-arrestin translocation – imaging, U2OS, beta-arrestin-GFP, LPI agonist, primary screen (AID 2013); type: functional;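 also: antagonist potency measured as reduced agonist-driven arrestin aggregation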
Sequence (Q9Y2T6 whole entry): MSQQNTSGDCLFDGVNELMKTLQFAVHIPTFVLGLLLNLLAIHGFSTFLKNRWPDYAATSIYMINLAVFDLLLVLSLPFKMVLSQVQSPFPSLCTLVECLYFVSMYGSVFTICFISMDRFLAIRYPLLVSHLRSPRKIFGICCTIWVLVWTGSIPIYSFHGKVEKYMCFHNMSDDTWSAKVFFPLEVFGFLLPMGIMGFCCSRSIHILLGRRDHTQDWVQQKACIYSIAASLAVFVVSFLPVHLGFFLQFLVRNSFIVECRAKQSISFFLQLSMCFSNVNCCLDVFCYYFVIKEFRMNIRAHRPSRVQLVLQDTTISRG
Active and inactive are the calls of the source.
Quantity name: IC50

**Q:** // IC50 lookup, key: O=C(Nc1ccccc1N1CCOCC1)c1cc(-c2ccncc2)nc2ccccc12
**A:** 4890 nM (active)

**Q:** Repeat with NC(=O)N=Nc1c2nc3ccccc3[nH]c-2c2ccccc12
**A:** 2880 nM (active)

**Q:** Repeat with CCc1nnc(NS(=O)(=O)c2ccc(NC(=O)/C=C/c3ccccc3Cl)cc2)s1
**A:** 1990 nM (active)

Below: the item to evaluate.
**Q:** // IC50 lookup, key: NNC(=O)COc1ccc(-c2[nH]nc(C(F)(F)F)c2-c2ccc(Br)cc2)c(O)c1
**A:** 1700 nM (active)

----------
assay: NIH-3T3 fibroblast cytotoxicity, dose response, cytotoxicity control, cell-based, fluorescence, Alamar Blue, secondary assay (AID 2327); assay type: functional;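 also: NIH-3T3 mouse fibroblasts cultured with fluconazole at 8 µg/mL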
The source made the active and inactive calls.
Allowed answers: active, inactive

**Q:** Just curious, what result did CCCCCC1CCC(c2nnc(S)n2C)CC1 (configuration not stated) get here?
**A:** inactive

Further cases:
**Q:** Just curious, what result did CCOc1ccccc1NC(=O)c1cc(S(=O)(=O)N2CCC3(CC2)OCCO3)ccc1F get here?
**A:** inactive

**Q:** Repeat with CCc1cccc(C)c1N=C(S)NCc1ccc2c(c1)cc(C)n2C
**A:** active

----------
target: Serine/threonine-protein phosphatase (Candida dubliniensis (strain CD36 / CBS 7987 / NCPF 3949 / NRRLY-17841) (Yeast)); assay: blockers of CaCl2-induced CDRE-lacZ signaling – S. cerevisiae, luminescence, secondary, dose response (AID 2388); type: functional, cell-based;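 also: yeast reporter cells carrying a calcineurin-responsive lacZ construct stimulated with calcium chloride; luminescent beta-galactosidase reporter signal in whole cells rather than isolated phosphatase activity; potency for inhibition where a drop in reporter signal means calcineurin blockade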
Sequence (B9W6M3 whole entry): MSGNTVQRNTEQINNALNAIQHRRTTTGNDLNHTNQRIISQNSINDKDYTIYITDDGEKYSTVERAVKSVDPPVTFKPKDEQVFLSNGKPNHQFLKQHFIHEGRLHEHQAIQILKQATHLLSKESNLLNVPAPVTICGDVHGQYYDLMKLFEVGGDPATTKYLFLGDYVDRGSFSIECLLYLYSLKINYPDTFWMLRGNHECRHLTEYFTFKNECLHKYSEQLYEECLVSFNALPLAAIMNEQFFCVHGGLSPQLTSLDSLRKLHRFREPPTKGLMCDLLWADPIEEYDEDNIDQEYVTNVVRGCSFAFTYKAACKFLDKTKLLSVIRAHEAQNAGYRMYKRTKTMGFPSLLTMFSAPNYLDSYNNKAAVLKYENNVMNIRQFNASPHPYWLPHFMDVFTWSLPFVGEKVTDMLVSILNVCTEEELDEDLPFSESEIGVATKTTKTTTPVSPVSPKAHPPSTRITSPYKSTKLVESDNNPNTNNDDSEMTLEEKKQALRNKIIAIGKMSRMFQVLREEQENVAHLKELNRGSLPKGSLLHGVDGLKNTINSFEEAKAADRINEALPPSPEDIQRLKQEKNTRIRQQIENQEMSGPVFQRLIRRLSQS
Active and inactive are the calls of the source.
Would you kindly list EC50 for each of these molecules?

Known EC50 results, listed for orientation:
**Q:** // EC50 lookup, key: Oc1c(CN2CCN(c3ccc(F)cc3)CC2)cc(Cl)c2cccnc12
**A:** > 180 µM (inactive)

**Q:** Repeat with O=c1c2ccc(Cl)cc2nc(-c2ccc([N+](=O)[O-])cc2)n1O
**A:** > 180 µM (inactive)

**Q:** Repeat with CCCCCCCNC(=O)COc1ccc2c(c1)C(=O)CC(C)(C)O2
**A:** > 180 µM (inactive)

I would be grateful if you could provide EC50 for each of the following entries.
1. Cc1cc(Br)ccc1OCC(=O)NNC(=O)C(=O)Nc1ccccc1
2. CCOc1ccc(-c2ccc(NS(=O)(=O)c3ccc([N+](=O)[O-])cc3)cc2)nn1

**A:**
> 180 µM (inactive)
> 180 µM (inactive)

----------
biological target: cAMP-dependent protein kinase catalytic subunit alpha (Homo sapiens); assay type: functional
Activity calls are given as the source filed them.
Allowed answers: active, inactive

**Q:** Just curious, what result did O=C1Nc2cc(-c3ccc(O)cc3)ccc2C1=Cc1ccc[nH]1 get here?
**A:** inactive

**Q:** Repeat with Fc1cccc(-c2c[nH]c3ncccc23)c1
**A:** active

**Q:** Repeat with CCCCOc1cc(-c2ccncc2)cc2[nH]nc(N)c12
**A:** active

**Q:** Repeat with O=C1Cc2cc(-c3ccccc3)cnc2N1
**A:** inactive

**Q:** Repeat with C=CCNc1cc(-c2c[nH]c3ncccc23)cc(Cl)n1
**A:** active

Further cases:
**Q:** Just curious, what result did NC(COc1cncc(-c2ccc3c(c2)C(=Cc2ccc[nH]2)C(=O)N3)c1)Cc1ccccc1 (stereo not drawn) get here?
**A:** active

**Q:** Repeat with CCOC(=O)c1c[nH]n2c(=O)cc(-c3ccncc3)nc12
**A:** inactive

**Q:** Repeat with O=C1Nc2ccccc2Nc2cc(-c3ccncc3Cl)ccc21
**A:** active
